assay: in vitro; conditions: PAMPA, pH 7.4
Description: Permeability of the compound at 30 to 50 uM at pH 7.4 by PAMPA-BBB assay
quantity name: Papp at 50 µM (×10⁻⁶ cm/s)
Write the number in ×10⁻⁶ cm/s without appending the unit.

[
  {
    "compound": "CNC(=C[N+](=O)[O-])NCCSCc1ccc(CN(C)C)o1",
    "units label": "×10⁻⁶ cm/s",
    "readout number": 0.06
  },
  {
    "compound": "NS(=O)(=O)c1cc2c(cc1Cl)N=CNS2(=O)=O [CHLOROTHIAZIDE]",
    "units label": "×10⁻⁶ cm/s",
    "readout number": 1.36
  }
]

Now look at this entry.
// Papp at 50 µM lookup, compound = O=C(CNS(=O)(=O)c1ccccc1C(F)(F)F)Nc1ccc2c(=O)n3c(nc2c1)CCC3 , result: 10.5

---

Entries and their measured pIC50 follow.
target: Acetylcholinesterase (Electrophorus electricus, UniProt O42275); test: Inhibition of electric eel AChE using acetylthiocholine iodide as substrate pre-incubated for 30 mins followed by substrate addition and measured after 5 mins by DTNB reagent based Ellman's method
Sequence (O42275 whole entry): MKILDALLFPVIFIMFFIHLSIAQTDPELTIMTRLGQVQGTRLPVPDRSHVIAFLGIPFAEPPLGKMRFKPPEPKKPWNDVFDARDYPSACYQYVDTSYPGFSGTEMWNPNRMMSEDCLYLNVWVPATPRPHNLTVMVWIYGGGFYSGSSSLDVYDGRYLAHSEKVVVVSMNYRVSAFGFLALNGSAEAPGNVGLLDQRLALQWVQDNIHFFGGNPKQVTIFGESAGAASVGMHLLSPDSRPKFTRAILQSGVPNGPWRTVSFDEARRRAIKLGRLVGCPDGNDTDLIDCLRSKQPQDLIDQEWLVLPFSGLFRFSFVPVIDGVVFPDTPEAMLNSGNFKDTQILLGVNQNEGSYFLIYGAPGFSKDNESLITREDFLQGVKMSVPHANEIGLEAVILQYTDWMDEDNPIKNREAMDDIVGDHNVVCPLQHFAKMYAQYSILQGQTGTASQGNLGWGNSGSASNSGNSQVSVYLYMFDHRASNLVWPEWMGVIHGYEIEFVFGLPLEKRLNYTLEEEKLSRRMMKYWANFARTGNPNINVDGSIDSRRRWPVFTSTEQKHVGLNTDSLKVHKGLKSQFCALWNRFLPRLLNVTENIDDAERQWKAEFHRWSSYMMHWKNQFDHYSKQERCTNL
// scale note: pIC50 = -log10(conc_M); give the bare number

[
  {
    "compound smiles": "CC(C)c1ccc(S(=O)(=O)NCC(=O)Nc2ccc3c(=O)n4c(nc3c2)CCC4)cc1",
    "pIC50": 4.90
  }
]

Form field pIC50, entry O=C(CNS(=O)(=O)c1ccccc1Br)Nc1ccc2c(=O)n3c(nc2c1)CCC3 : 5.38

Record summary for O=C(CNS(=O)(=O)c1cccc(Cl)c1)Nc1ccc2c(=O)n3c(nc2c1)CCC3 : reported pIC50 = 5.40

The value of pIC50 measured for the molecule COc1ccc(Br)cc1S(=O)(=O)NCC(=O)Nc1ccc2c(=O)n3c(nc2c1)CCC3 turned out to be 5.28

---

molecular target: UniProtKB P81908; assay: Inhibition of equine serum BuChE using S-butyrylthiocholine iodide as substrate pre-incubated for 30 mins followed by substrate addition and measured after 5 mins by DTNB reagent based Ellman's method
Sequence (P81908 whole entry): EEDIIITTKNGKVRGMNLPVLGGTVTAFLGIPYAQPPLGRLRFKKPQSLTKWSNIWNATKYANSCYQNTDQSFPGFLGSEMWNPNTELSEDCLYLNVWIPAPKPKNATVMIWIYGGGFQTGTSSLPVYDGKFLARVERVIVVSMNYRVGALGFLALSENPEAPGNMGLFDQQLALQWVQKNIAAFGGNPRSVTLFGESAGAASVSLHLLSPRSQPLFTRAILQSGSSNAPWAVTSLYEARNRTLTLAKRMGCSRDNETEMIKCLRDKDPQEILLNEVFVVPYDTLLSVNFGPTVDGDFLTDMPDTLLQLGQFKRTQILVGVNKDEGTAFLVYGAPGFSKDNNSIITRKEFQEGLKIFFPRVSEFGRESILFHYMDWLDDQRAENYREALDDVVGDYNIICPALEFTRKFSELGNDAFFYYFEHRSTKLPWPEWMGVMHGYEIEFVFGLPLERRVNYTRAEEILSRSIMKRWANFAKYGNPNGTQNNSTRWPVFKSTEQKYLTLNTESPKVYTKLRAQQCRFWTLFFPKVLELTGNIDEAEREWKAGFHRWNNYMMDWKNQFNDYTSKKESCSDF
Measured IC50 values are reported for all entries that follow.

[
  {
    "compound smiles": "O=C(CNS(=O)(=O)c1ccccc1C(F)(F)F)Nc1ccc2c(=O)n3c(nc2c1)CCC3",
    "experimental system": "UniProtKB P81908",
    "IC50": "> 50 µM"
  },
  {
    "compound smiles": "Cc1ccc(S(=O)(=O)NCC(=O)Nc2ccc3c(=O)n4c(nc3c2)CCC4)cc1",
    "experimental system": "UniProtKB P81908",
    "IC50": "> 50 µM"
  },
  {
    "compound smiles": "O=C(CNS(=O)(=O)c1c(F)cccc1F)Nc1ccc2c(=O)n3c(nc2c1)CCC3",
    "experimental system": "UniProtKB P81908",
    "IC50": "> 50 µM"
  }
]

In plain terms, COc1ccc(S(=O)(=O)NCC(=O)Nc2ccc3c(=O)n4c(nc3c2)CCC4)cc1 has a documented IC50 of 32.9 µM

---

system: BV-2; test: Anti-neuroinflammatory activity against LPS-induced mouse BV-2 cells assessed as inhibition of NO production pre-incubated for 1 hr followed by LPS addition and measured after 24 hrs by Griess reagent based assay; assay type: functional, cell-based
quantity name: pIC50
In textbook form, pIC50 equals minus log to base ten of the concentration in mol/L.

Notebook: O=C(CNS(=O)(=O)c1ccccc1C(F)(F)F)Nc1ccc2c(=O)n3c(nc2c1)CCC3 , pIC50 read as 5.48

---

tested on: BV-2; test: Anti-neuroinflammatory activity against LPS-induced mouse BV-2 cells assessed as inhibition of TNF-alpha production pre-incubated for 1 hr followed by LPS addition and measured after 24 hrs by ELISA; type: functional, cell-based
quantity name: pIC50
The scale used: pIC50 is minus the common logarithm of the concentration in molar units.

# pIC50 measured on BV-2 for item O=C(CNS(=O)(=O)c1ccccc1C(F)(F)F)Nc1ccc2c(=O)n3c(nc2c1)CCC3 = 5.06

---

target: Acetylcholinesterase (Electrophorus electricus, UniProt O42275); assay: Inhibition of electric eel AChE using acetylthiocholine iodide as substrate pre-incubated for 30 mins followed by substrate addition and measured after 5 mins by DTNB reagent based Ellman's method
quantity name: IC50 (µM)
Express the result in µM but write the number alone.

These solved cases illustrate the format of a correct answer.
[
  {
    "compound smiles": "CCc1ccc(S(=O)(=O)NCC(=O)Nc2ccc3c(=O)n4c(nc3c2)CCC4)cc1",
    "units label": "µM",
    "readout number": 31.7
  },
  {
    "compound smiles": "O=C(CNS(=O)(=O)c1c(Cl)cccc1Cl)Nc1ccc2c(=O)n3c(nc2c1)CCC3",
    "units label": "µM",
    "readout number": 4.06
  }
]

Record O=C(CNS(=O)(=O)c1cccc(Br)c1)Nc1ccc2c(=O)n3c(nc2c1)CCC3 . Reported IC50: 7.88

Data point: COc1ccc(S(=O)(=O)NCC(=O)Nc2ccc3c(=O)n4c(nc3c2)CCC4)cc1OC ; IC50 = 10.4

IC50 reading for O=C(CNS(=O)(=O)c1ccccc1)Nc1ccc2c(=O)n3c(nc2c1)CCC3 : 5.39

The reported IC50 of the molecule O=C(CNS(=O)(=O)c1c(F)cccc1F)Nc1ccc2c(=O)n3c(nc2c1)CCC3 was 5.12

---

molecular target: Acetylcholinesterase (Electrophorus electricus)
quantity name: pKi
Worth noting: pKi values are minus log10 of concentrations stated in mol/L.

Entry O=C(CNS(=O)(=O)c1ccccc1C(F)(F)F)Nc1ccc2c(=O)n3c(nc2c1)CCC3 ; assay system Acetylcholinesterase (Electrophorus electricus); pKi recorded at 6.62

---

biological target: UniProt O42275; assay: Inhibition of electric eel AChE using acetylthiocholine iodide as substrate pre-incubated for 30 mins followed by substrate addition and measured after 5 mins by DTNB reagent based Ellman's method
quantity name: pIC50
Note on units: pIC50 is unitless, being -log10 of a concentration expressed in mol/L.

Study these solved cases before continuing.
[
  {
    "compound smiles": "O=C(CNS(=O)(=O)c1ccccc1Cl)Nc1ccc2c(=O)n3c(nc2c1)CCC3",
    "pIC50": 5.59
  },
  {
    "compound smiles": "O=C(CNS(=O)(=O)c1ccccc1C(F)(F)F)Nc1ccc2c(=O)n3c(nc2c1)CCC3",
    "pIC50": 6.62
  },
  {
    "compound smiles": "COc1ccc(S(=O)(=O)NCC(=O)Nc2ccc3c(=O)n4c(nc3c2)CCC4)cc1",
    "pIC50": 5.25
  }
]

Memo: Cc1ccc(S(=O)(=O)NCC(=O)Nc2ccc3c(=O)n4c(nc3c2)CCC4)cc1 , reported pIC50: 4.75

O=C(CNS(=O)(=O)c1ccc(F)c(Cl)c1)Nc1ccc2c(=O)n3c(nc2c1)CCC3 has a reported pIC50 of 5.09

Lookup result for O=C(CNS(=O)(=O)c1ccccc1OC(F)(F)F)Nc1ccc2c(=O)n3c(nc2c1)CCC3 ; measured pIC50: 6.11

Recorded pIC50 (compound O=C(CNS(=O)(=O)c1cccc(F)c1)Nc1ccc2c(=O)n3c(nc2c1)CCC3 ): 5.35

The recorded pIC50 for entry COc1ccc(S(=O)(=O)NCC(=O)Nc2ccc3c(=O)n4c(nc3c2)CCC4)c(OC)c1 equals 5.04

Looking up O=C(CNS(=O)(=O)c1ccccc1F)Nc1ccc2c(=O)n3c(nc2c1)CCC3 , I found its pIC50 recorded as 5.28

Entry O=C(CNS(=O)(=O)c1cccc(C(F)(F)F)c1)Nc1ccc2c(=O)n3c(nc2c1)CCC3 ; pIC50 = 4.68

---

The entries below come with measured IC50 values attached.
biological target: Acetylcholinesterase (Electrophorus electricus); assay: Inhibition of electric eel AChE using acetylthiocholine iodide as substrate pre-incubated for 30 mins followed by substrate addition and measured after 5 mins by DTNB reagent based Ellman's method

Consider the worked cases shown below.
[
  {
    "compound smiles": "CCCc1ccc(S(=O)(=O)NCC(=O)Nc2ccc3c(=O)n4c(nc3c2)CCC4)cc1",
    "quantity name": "IC50",
    "result": "> 50 µM"
  },
  {
    "compound smiles": "CC(C)c1cc(C(C)C)c(S(=O)(=O)NCC(=O)Nc2ccc3c(=O)n4c(nc3c2)CCC4)c(C(C)C)c1",
    "quantity name": "IC50",
    "result": "> 50 µM"
  }
]

Turning now to a further compound:
The measured IC50 associated with O=C(CNS(=O)(=O)c1cccc(OC(F)(F)F)c1)Nc1ccc2c(=O)n3c(nc2c1)CCC3 reads > 50 µM

---

target: Acetylcholinesterase (Electrophorus electricus); assay: Inhibition of electric eel AChE using acetylthiocholine iodide as substrate pre-incubated for 30 mins followed by substrate addition and measured after 5 mins by DTNB reagent based Ellman's method
pIC50: −log10 of the molar value.
quantity name: pIC50

[
  {
    "compound smiles": "O=C(CNS(=O)(=O)c1cc(Cl)c(F)cc1F)Nc1ccc2c(=O)n3c(nc2c1)CCC3",
    "pIC50": "< 4.30"
  },
  {
    "compound smiles": "O=C(CNS(=O)(=O)c1ccc(OC(F)(F)F)cc1)Nc1ccc2c(=O)n3c(nc2c1)CCC3",
    "pIC50": "< 4.30"
  },
  {
    "compound smiles": "O=C(CNS(=O)(=O)c1cc(Cl)cc(Cl)c1)Nc1ccc2c(=O)n3c(nc2c1)CCC3",
    "pIC50": "< 4.30"
  },
  {
    "compound smiles": "O=C(CNS(=O)(=O)c1cc(Br)cc(C(F)(F)F)c1)Nc1ccc2c(=O)n3c(nc2c1)CCC3",
    "pIC50": "< 4.30"
  },
  {
    "compound smiles": "O=C(CNS(=O)(=O)c1ccc(Br)cc1)Nc1ccc2c(=O)n3c(nc2c1)CCC3",
    "pIC50": "< 4.30"
  },
  {
    "compound smiles": "CC(C)(C)c1ccc(S(=O)(=O)NCC(=O)Nc2ccc3c(=O)n4c(nc3c2)CCC4)cc1",
    "pIC50": "< 4.30"
  },
  {
    "compound smiles": "O=C(CNS(=O)(=O)c1ccc(F)cc1)Nc1ccc2c(=O)n3c(nc2c1)CCC3",
    "pIC50": 5.25
  },
  {
    "compound smiles": "O=C(CNS(=O)(=O)c1ccc(Cl)cc1)Nc1ccc2c(=O)n3c(nc2c1)CCC3",
    "pIC50": 4.32
  }
]

Lab note: molecule O=C(CNS(=O)(=O)c1ccc(C(F)(F)F)cc1)Nc1ccc2c(=O)n3c(nc2c1)CCC3 tested on Acetylcholinesterase (Electrophorus electricus); recorded pIC50 was 4.61
